- Read-out: flavin-containing dimethylaniline monooxygenases 3 (FMO3), FMO3 (gene 2328)
- Protocol Summary: LTEA_HepaRG_FMO3: Life Technologies and Expression Analysis (LTEA) Assay for flavin-containing dimethylaniline monooxygenases 3 (FMO3) using HepaRG (AID 2283453);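 on AC50: differentiated human HepaRG liver cells in serum-free induction medium; FMO3 transcript by TaqMan qRT-PCR normalized to ACTB GAPDH and POLR2A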
- Experimental Conditions: mRNA level, 48 h; actives raise or lower the signal
Active and inactive are the calls of the source. How the source made its calls: active means hit-call score of the fitted dose curve at least 0.9, where 1 is the maximum; inactive means score below 0.9.
Property Measured: AC50

# Compound, AC50
measured = [
    ("Nc1ccc(S(=O)(=O)c2ccc(N)cc2)cc1", "inactive"),
    ("Cc1c(C(=O)O)c(O)cc2c1C(=O)c1c(O)c([C@@H]3O[C@H](CO)[C@@H](O)[C@H](O)[C@H]3O)c(O)c(O)c1C2=O", "inactive"),
    ("Cc1nc(-c2ccc3c(c2)CCN(CCC2CCC(NC(=O)/C=C/c4ccc(F)cc4)CC2)CC3)no1 (stereo unspecified)", "inactive"),
    ("Cc1ccc(C)c(O)c1C", "inactive"),
    ("Cc1ccccc1Cl", "inactive"),
    ("Cc1nc(C)nc(N2C[C@@H](C)N(c3ccnc([C@@H](C)O)n3)[C@@H](C)C2)n1", "inactive"),
    ("O=c1c(O)c(-c2ccc(O)c(O)c2)oc2cc(O)cc(O)c12", "80 µM (active)"),
    ("COCCOC[C@H](CC1(C(=O)NC2CCC(C(=O)O)CC2)CCCC1)C(=O)Oc1ccc2c(c1)CCC2 (stereo partly specified)", "inactive"),
    ("CNCc1cc(F)ccc1Oc1ccc(Cl)c(Cl)c1", "93.3 µM (active)"),
    ("Nc1nc(N)c2nc(CNc3ccc(C(=O)N[C@@H](CCC(=O)O)C(=O)O)cc3)cnc2n1", "inactive"),
]

# input for lookup
Lookup: I have this compound here, `CCCCCCC(=O)OCC` , and I need its recorded AC50.
Found: inactive

Where do the numbers come from? From PubChem BioAssay (EPA / NIEHS).
